Entry source: patent US6878804B1

Would you mind telling me the reported pIC50 of each entry?
- tested on: T1, platelet-derived growth factor β-receptor (PDGFR-β)
- T1 chain: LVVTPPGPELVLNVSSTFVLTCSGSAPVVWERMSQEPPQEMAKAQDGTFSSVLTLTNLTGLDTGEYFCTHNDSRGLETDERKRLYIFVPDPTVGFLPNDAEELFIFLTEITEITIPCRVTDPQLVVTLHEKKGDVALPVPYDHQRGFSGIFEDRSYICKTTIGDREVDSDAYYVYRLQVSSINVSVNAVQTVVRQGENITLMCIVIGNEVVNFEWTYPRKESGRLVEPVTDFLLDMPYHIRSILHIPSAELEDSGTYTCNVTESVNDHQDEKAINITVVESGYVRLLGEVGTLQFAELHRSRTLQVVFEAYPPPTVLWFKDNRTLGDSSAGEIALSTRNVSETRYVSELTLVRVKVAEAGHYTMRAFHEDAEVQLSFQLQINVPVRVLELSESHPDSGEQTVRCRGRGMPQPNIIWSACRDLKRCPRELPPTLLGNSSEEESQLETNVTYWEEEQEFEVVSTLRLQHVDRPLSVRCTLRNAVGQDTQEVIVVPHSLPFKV
- experiment: solid-phase competition, displacement of 125I-PDGF-BB from plate-immobilised PDGFR-β
Non-standard residues stand in square brackets, D forms with d.
Give bare numbers, as −log10 of the molar value.

cyclo(PYWVRKKWY[dP]) (also called ^LP-Y-W-V-R / ^DP-Y-W-K-K) [target cyclic peptide 9]; 3.30
cyclo(PWSVRKKSW[dP]) (SMILES CC(C)[C@@H]1NC(=O)[C@H](CO)NC(=O)[C@H](Cc2c[nH]c3ccccc23)NC(=O)[C@@H]2CCCN2C(=O)[C@H]2CCCN2C(=O)[C@H](Cc2c[nH]c3ccccc23)NC(=O)[C@H](CO)NC(=O)[C@H](CCCCN)NC(=O)[C@H](CCCCN)NC(=O)[C@H](CCCNC(=N)N)NC1=O, also called ^LP-W-S-V-R / ^DP-W-S-K-K) [target cyclic peptide 17]; 3.10

Continue with the next binder.
// query Given the binder cyclo(PYSVRKKSY[dP]) (SMILES CC(C)[C@@H]1NC(=O)[C@H](CO)NC(=O)[C@H](Cc2ccc(O)cc2)NC(=O)[C@@H]2CCCN2C(=O)[C@H]2CCCN2C(=O)[C@H](Cc2ccc(O)cc2)NC(=O)[C@H](CO)NC(=O)[C@H](CCCCN)NC(=O)[C@H](CCCCN)NC(=O)[C@H](CCCNC(=N)N)NC1=O, also called ^LP-Y-S-V-R / ^DP-Y-S-K-K) [target cyclic peptide 11] , write its reported pIC50.
// result 2.70
